Some binders, each annotated with its measured RLU.
- system_under_test: T1, human apical domain of CD71 (human, UniProt P02786 189-383, limits assumed)
- T1 construct: domain: apical domain
- protocol_summary: primary ELISA; also: test concentration or dose not given here

[
  {
    "binder": "CD71-binding FN3 domain SEQ ID NO 405 (designed binder) MLPAPKNLVVSRVTEDSARLSWTAPDAAFDSFFIGYLEPQPPGEAIHLWVPGSERSYDLTGLKPGTEYNVTIQGVKGGFPSLPLSAFFTT",
    "RLU / RLU": "3.47e+06"
  },
  {
    "binder": "CD71-binding FN3 domain SEQ ID NO 391 (designed binder) MLPAPKNLIVSRVTEDSARLSWTAPDAAFDSFFIGYLEPQPPGEAISLYVPGSERSYDLTGLKPGTEYNVTIQGVKGGFPSDPLQAIFTT",
    "RLU / RLU": "4.19e+06"
  },
  {
    "binder": "CD71-binding FN3 domain SEQ ID NO 350 (designed binder) MLPAPKNLVVSRVTEDSARLSWTAPDAAFDSFFIGYLEPQPPGEAISLFVPGSERSYDLTGLKPGTEYNVTIQGVKGGFPSMPLVAQFTT",
    "RLU / RLU": "6.7e+06"
  },
  {
    "binder": "CD71-binding FN3 domain SEQ ID NO 426 (designed binder) MLPAPKNLVVSRVTEDSARLSWTAPDAAFDSFFIGYLEPQPPGEAIFLLVPGSERSYDLTGLKPGTEYNVTIQGVKGGFPSMPLSAIFTT",
    "RLU / RLU": "5.95e+06"
  },
  {
    "binder": "CD71-binding FN3 domain SEQ ID NO 421 (designed binder, The cell prints '42') MLPAPKNLVVSRVTEDSARLSWTAPDAAFDSFFIGYLEPQPPGEAIDLWVPGSERSYDLTGLKPGTEYNVTIQGVKGGFPSMPLEAVFTT",
    "RLU / RLU": "4.2e+06"
  },
  {
    "binder": "CD71-binding FN3 domain SEQ ID NO 397 (designed binder) MLPAPKNLVVSRVTEDSARLSWTAPDAAFDSFIILYGEAQYDGEAIVLTVPGSERSYDLTGLKPGTEYPVDIYGVKGGPYSWPLSAIFTT",
    "RLU / RLU": "5.57e+06"
  },
  {
    "binder": "CD71-binding FN3 domain SEQ ID NO 383 (designed binder) MLPAPKNLVVSRVTEDSARLSWTAPDAAFDSFFIGYLEPQPPGEAIDLWVPGSERSYDLTGLKPGTEYNVTIQGVKGGFPSLPLDAVFTT",
    "RLU / RLU": "4.33e+06"
  },
  {
    "binder": "CD71-binding FN3 domain SEQ ID NO 424 (designed binder) MLPAPKNLVVSRVTEDSARLSWTAPDAAFDSFFIGYLEPQPPGEAIHLIVPGSERSYDLTGLKPGTEYNVTIQGVKGGFPSDPLDASFTT",
    "RLU / RLU": "5.16e+06"
  },
  {
    "binder": "CD71-binding FN3 domain SEQ ID NO 360 (designed binder) MLPAPKNLVVSRVTEDSARLSWTAPDAAFDSFFIGYLEPQPPGEAISLYVPGSERSYDLTGLKPGTEYNVTIQGVKGGFPSHPLLAVFTT",
    "RLU / RLU": "5.37e+06"
  },
  {
    "binder": "CD71-binding FN3 domain SEQ ID NO 435 (designed binder) MLPAPKNLVVSRVTEDSARLSWTAPDAAFDSFFIGYLEPQPPGEAIALWVPGSERSYDLTGLKPGTEYNVTIQGVKGGFPSHPLAAVFTT",
    "RLU / RLU": "5.5e+06"
  },
  {
    "binder": "CD71-binding FN3 domain SEQ ID NO 361 (designed binder) MLPAPKNLVVSRVTEDSARLSWTAPDAAFDSFFIGYLEPQPPGEAIQLFVPGSERSYDLTGLKPGTEYNVTIQGVKGGFPSIPLSALFTT",
    "RLU / RLU": "5.01e+06"
  },
  {
    "binder": "CD71-binding FN3 domain SEQ ID NO 442 (designed binder) MLPAPKNLVVSRVTEDSARLSWTAPDAAFDSFEIWYAEWRQVGEAIVLTVPGSERSYDLTGLKPGTEYNVDIHGVKGGKVSWPLSAISTT",
    "RLU / RLU": "6.23e+06"
  },
  {
    "binder": "CD71-binding FN3 domain SEQ ID NO 438 (designed binder) MLPAPKNLVVSRVTEDSARLSWTAPDAAFDSFFIGYLEPQPPGEAIDLWVPGSERSYDLTGLKPGTEYNVTIQGVKGGFPSYPLLAIFTT",
    "RLU / RLU": "5.59e+06"
  },
  {
    "binder": "CD71-binding FN3 domain SEQ ID NO 386 (designed binder) MLPAPKNLVVSRVTEDSARLSWTAPDAAFDSFYIAYAEPRPDGEAITLLVPGSERSYDLTGLKPGTEYSVLIHGVKGGLLSSPLSAIFTT",
    "RLU / RLU": "3.96e+06"
  },
  {
    "binder": "CD71-binding FN3 domain SEQ ID NO 419 (designed binder) MLPAPKNLVVSRVTEDSARLSWTAPDAAFDSFFIGYLEPQPPGEAIALLVPGSERSYDLTGLKPGTEYNVTIQGVKGGFPSSPLNAYFTT",
    "RLU / RLU": "4.59e+06"
  },
  {
    "binder": "CD71-binding FN3 domain SEQ ID NO 403 (designed binder) MLPAPKNLVVSRVTEDSARLSWTAPDAAFDSFYIAYAEPRPDGEAIVLDVPGSERSYDLTGLKPGTEYSVLIHGVKGGLLSSPLVADFTT",
    "RLU / RLU": "5.34e+06"
  },
  {
    "binder": "CD71-binding FN3 domain SEQ ID NO 346 (designed binder) MLPAPKNLVVSRVTEDSARLSWTAPDAAFDSFFIGYLEPQPPGEAISLFVPGSERSYDLTGLKPGTEYNVTIQGVKGGFPSDPLNATFNT",
    "RLU / RLU": "6.82e+06"
  },
  {
    "binder": "CD71-binding FN3 domain SEQ ID NO 351 (designed binder) MLPAPKNLVVSRVTEDSARLSWTAPDAAFDSFFIGYLEPQPPGEAITLAVPGSERSYDLTGLKPGTEYNVTIQGVKGGFPSNPLLAAFTT",
    "RLU / RLU": "2.87e+06"
  }
]

Cited source for all entries: patent US20260151494A1
